Where do these numbers come from? They come from PubChem BioAssay AID256.

# Tested on: CD2F1 mice, L1210 leukemia ip, survival T/C
# TEST_PROTOCOL: NCI In Vivo Anticancer Drug Screen. Data for tumor model L1210 Leukemia (intraperitoneal) in CD2F1 (CDF1) mice
# ASSAY_SETUP: endpoint: mean survival time; dose: 25.0 mg/kg/injection; schedule: Q01DX005 (ip); vehicle: water; higher = longer survival
Inconclusive results and toxic doses are left out.
VALUE_TYPE: T/C

Cn1c(-[n+]2ccccc2)nc2c1c(=O)[nH]c(=O)n2C ... 102 % of control
Cn1c(=O)c2c(nc(N3CCOCC3)n2CCCNCC(O)c2ccc(O)cc2)n(C)c1=O (stereo unspecified) ... 104 % of control
NC(=O)c1n[nH]c(C2OC(COP(=O)(O)O)C(O)C2O)n1 (stereo unspecified) ... 100 % of control
O=c1ccn(C2OC(CO)C(F)(CO)C2O)c(=O)[nH]1 (stereo unspecified) ... 109 % of control
C=Cn1cnc2c(N)ncnc21 (tested in a mixture with another compound) ... 104 % of control

# input for lookup
Entry under test: CCOC(=O)CCCSc1nn(C2OC(CO)C(O)C2O)c(=O)[nH]c1=O (stereo unspecified) . Its T/C was 101 % of control
